- target.desc: CECR2 bromodomain (Homo sapiens)
- Construct: His; purchased Reaction Biology RD-11-210
- Sequence (Q9BXF3 434-538 limits assumed): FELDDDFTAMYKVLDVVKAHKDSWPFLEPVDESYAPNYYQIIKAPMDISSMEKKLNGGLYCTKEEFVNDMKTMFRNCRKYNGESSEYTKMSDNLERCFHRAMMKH
- experiment: AlphaScreen assay with CECR2 bromodomain and biotinylated histone H4 KAc5,8,12,16 peptide
- Assay type: binding
- conditions: AlphaScreen; average of two technical replicates with N = 2 unless otherwise indicated; read-out: CECR2 BD IC50
# reported log10 of IC50; entries follow
readout.label: log10 of IC50 (log10 of the value in µM)

molecule: Cn1ncc(Nc2ccc3c(c2)CCN(CCOCCOCCNC(=O)COc2cccc4c2C(=O)N(C2CCC(=O)NC2=O)C4=O)C3)c(Cl)c1=O (stereo not drawn) [Compound 5]
log10 of IC50: -0.65
--
molecule: Cn1ncc(Nc2ccc3c(c2)CN(CCCCCCNC(=O)COc2cccc4c2C(=O)N(C2CCC(=O)NC2=O)C4=O)CC3)c(Cl)c1=O (stereo not drawn) [Compound 4]
log10 of IC50: -0.31
--
molecule: Cn1ncc(Nc2ccc3c(c2)CNCC3)c(Cl)c1=O [Compound 2]
log10 of IC50: 0.11
--
molecule: CN(C)CCCOc1ccc(-c2cc(NCCCn3cccn3)nc(S(C)(=O)=O)n2)cc1 [Compound 7, TP-238, reference compound]
log10 of IC50: -1.48
--
molecule: Cn1ncc(Nc2ccc3c(c2)CCN(CCCCCCNC(=O)COc2cccc4c2C(=O)N(C2CCC(=O)NC2=O)C4=O)C3)c(Cl)c1=O (stereo not drawn) [Compound 3]
log10 of IC50: -1.28
--
molecule: Cn1ncc(Nc2ccc3c(c2)CN(CCOCCOCCNC(=O)COc2cccc4c2C(=O)N(C2CCC(=O)NC2=O)C4=O)CC3)c(Cl)c1=O (stereo not drawn) [Compound 6]
log10 of IC50: 0.16

* * *

- target.desc: BPTF bromodomain (Homo sapiens, UniProt Q12830)
- Construct: His9-tagged BPTF bromodomain was expressed and purified as described previously; His9
- experiment: AlphaScreen assay with BPTF bromodomain and biotinylated histone H4 KAc5,8,12,16 peptide
- conditions: average of two technical replicates with N = 3 unless otherwise indicated, read-out: BPTF BD IC50
Catalogue of IC50 values

compound: Cn1ncc(Nc2ccc3c(c2)CN(CCCCCCNC(=O)COc2cccc4c2C(=O)N(C2CCC(=O)NC2=O)C4=O)CC3)c(Cl)c1=O (centres unmarked)
IC50: 158 nM

compound: CN(C)CCCOc1ccc(-c2cc(NCCCn3cccn3)nc(S(C)(=O)=O)n2)cc1 [Compound 7, TP-238, reference compound]
IC50: 430 nM

compound: Cn1ncc(Nc2ccc3c(c2)CCN(CCOCCOCCNC(=O)COc2cccc4c2C(=O)N(C2CCC(=O)NC2=O)C4=O)C3)c(Cl)c1=O (centres unmarked)
IC50: 70 nM

compound: Cn1ncc(Nc2ccc3c(c2)CCN(CCCCCCNC(=O)COc2cccc4c2C(=O)N(C2CCC(=O)NC2=O)C4=O)C3)c(Cl)c1=O (centres unmarked)
IC50: 24 nM

compound: Cn1ncc(Nc2ccc3c(c2)CN(CCOCCOCCNC(=O)COc2cccc4c2C(=O)N(C2CCC(=O)NC2=O)C4=O)CC3)c(Cl)c1=O (centres unmarked)
IC50: 121 nM

* * *

- target.desc: BRD9 bromodomain (Homo sapiens, UniProt Q9H8M2)
- Construct: His; purchased Reaction Biology RD-11-214
- Sequence (Q9H8M2 136-240 limits assumed): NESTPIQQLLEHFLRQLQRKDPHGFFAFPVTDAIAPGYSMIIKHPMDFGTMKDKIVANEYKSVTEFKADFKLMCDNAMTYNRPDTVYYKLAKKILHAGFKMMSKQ
- experiment: AlphaScreen assay with BRD9 bromodomain and biotinylated histone H4 KAc5,8,12,16 peptide
- Assay type: binding

smiles.notation: Cn1ncc(Nc2ccc3c(c2)CCNC3)c(Cl)c1=O
target.desc: BRD9 bromodomain (Homo sapiens, UniProt Q9H8M2)
reading.unit: µM
IC50: 0.556
